# target.or.system: TNKS1 (Homo sapiens, UniProt O95271)
# Sequence (O95271 1-1327): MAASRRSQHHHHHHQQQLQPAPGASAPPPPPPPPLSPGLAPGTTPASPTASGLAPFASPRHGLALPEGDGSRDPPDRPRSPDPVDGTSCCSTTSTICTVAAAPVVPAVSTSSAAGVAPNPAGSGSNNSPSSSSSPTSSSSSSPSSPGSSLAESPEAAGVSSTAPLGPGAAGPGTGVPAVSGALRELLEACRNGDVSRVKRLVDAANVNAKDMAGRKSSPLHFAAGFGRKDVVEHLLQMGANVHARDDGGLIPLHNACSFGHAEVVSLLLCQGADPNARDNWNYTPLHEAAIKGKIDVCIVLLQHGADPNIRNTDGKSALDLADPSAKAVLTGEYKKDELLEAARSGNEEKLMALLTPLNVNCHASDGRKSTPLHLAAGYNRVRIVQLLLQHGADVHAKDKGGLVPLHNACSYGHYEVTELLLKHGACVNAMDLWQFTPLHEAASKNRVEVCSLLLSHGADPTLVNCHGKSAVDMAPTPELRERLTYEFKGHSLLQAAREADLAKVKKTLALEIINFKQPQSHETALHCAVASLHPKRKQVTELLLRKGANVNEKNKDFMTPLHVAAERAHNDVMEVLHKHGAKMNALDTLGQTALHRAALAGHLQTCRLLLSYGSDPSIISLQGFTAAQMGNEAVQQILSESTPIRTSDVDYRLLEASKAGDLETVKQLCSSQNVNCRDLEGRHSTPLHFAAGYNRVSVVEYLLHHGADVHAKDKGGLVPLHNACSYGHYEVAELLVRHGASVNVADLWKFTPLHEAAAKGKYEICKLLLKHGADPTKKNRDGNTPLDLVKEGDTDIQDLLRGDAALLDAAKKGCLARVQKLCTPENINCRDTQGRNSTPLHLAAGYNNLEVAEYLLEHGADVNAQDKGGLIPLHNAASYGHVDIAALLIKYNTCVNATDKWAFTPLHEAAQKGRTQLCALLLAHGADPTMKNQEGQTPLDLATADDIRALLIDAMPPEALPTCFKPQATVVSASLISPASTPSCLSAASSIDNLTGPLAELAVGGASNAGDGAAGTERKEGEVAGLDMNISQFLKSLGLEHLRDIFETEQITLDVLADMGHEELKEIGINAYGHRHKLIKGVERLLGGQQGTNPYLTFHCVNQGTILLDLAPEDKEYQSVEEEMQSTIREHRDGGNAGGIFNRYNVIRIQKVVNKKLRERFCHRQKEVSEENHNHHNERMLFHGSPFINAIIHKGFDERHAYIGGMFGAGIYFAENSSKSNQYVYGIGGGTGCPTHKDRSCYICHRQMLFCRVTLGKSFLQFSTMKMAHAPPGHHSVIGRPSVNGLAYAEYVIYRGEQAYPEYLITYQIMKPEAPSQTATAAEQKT
measured.quantity: IC50 (µM)

[[record]]
compound = "CCNC(=O)c1nc[nH]c1C(=O)N[C@H]1CC[C@@]2(CCN(c3cccc(Cl)c3)C2=O)CC1"
measured_quantity = "IC50"
numeric_readout = 0.26


1: CNC(=O)c1[nH]cnc1C(=O)N[C@@H]1CC[C@@H](C(=O)Nc2ccc(F)cc2Cl)C[C@@H]1F (racemic)
2: COCCNC(=O)c1nc[nH]c1C(=O)N[C@H]1CC[C@@]2(CCN(c3ccccc3Cl)C2=O)CC1
3: CNC(=O)c1nc[nH]c1C(=O)N[C@H]1CC[C@H](C(=O)Nc2ccc(F)cc2Cl)CC1
4: COC[C@@H](C)NC(=O)c1nc[nH]c1C(=O)N[C@H]1CC[C@H](C(=O)Nc2c(F)cc(F)cc2Cl)CC1
5: COCC(C)NC(=O)c1nc[nH]c1C(=O)N[C@H]1CC[C@@]2(CCN(c3ccc(F)cc3Cl)C2=O)CC1 (mixture of isomers)
input: Hey, quick one: sort these by IC50, low to high? Thanks in advance for listing the labels in the requested order.
output: 2, 5, 3, 1, 4
(2: 0.012 µM, 5: 0.037 µM, 3: 0.073 µM, 1: 0.15 µM, 4: 0.25 µM)

I: O=C(N[C@H]1CC[C@@]2(CCN(c3cc(F)c(F)cc3Cl)C2=O)CC1)c1[nH]cnc1C(=O)N1CC(F)C1
II: O=C(NC12CCC(C(=O)Nc3cnccc3Cl)(CC1)CC2)c1cnn2cccnc12
III: O=C(NCC1CCCO1)c1nc[nH]c1C(=O)N[C@H]1CC[C@H](C(=O)Nc2cc(N3CCOCC3)ccc2Cl)CC1 (some centres unmarked)
IV: O=C(NCC1CCCO1)c1nc[nH]c1C(=O)N[C@H]1CC[C@H](C(=O)Nc2cnccc2Cl)CC1 (some centres unmarked)
input: Hey, quick one: sort these by IC50, low to high? Thanks in advance for listing the labels in the requested order.
output: I, IV, II, III
